- target_system: JAK2 WT peptide (JAK2 autophosphorylation site 1001LPQDKEYYKVKEP) (Homo sapiens)
- Construct: made in house; host or cells: chemical synthesis (Fmoc)
- method_notes: ELISA binding of biotinylated JAK2 WT peptide to solid-phase peptides
- condition_label: FIG. 1A; ELISA, peptides coated on 96-well plates
metric_name: binding of biotinylated JAK2 WT peptide to solid-phase peptide

sequence_data	result
KTEGVPSTAIREISLLKELNH (amino acid sequence of a peptide used for control purposes) [CDK 41–61, cyclin-dependent kinase, cyclin box peptide 41–61]	negligible
SSDVRYVNAFKFM (amino acid sequence of a peptide used for control purposes) [VEGFR 1208–1222, vascular endothelial growth factor receptor autophosphorylation peptide]	negligible
AKFEVNNPQVQRQAFNELIRVVHQLLPESSL (amino acid sequence of a peptide used for control purposes) [IFN-γ95–125]	negligible
